assay-method-text: pH dependence of the stability of DCHA+ salts 3 in D2O (31P NMR)
Format: physicochemical
measurement-context: t = 24 h, pH 6.7, D2O, 22° C.; read-out: Z isomer (% int, 31P NMR)
quantity-name: remaining at 24 h

Entry COC(=O)/C(=N/O)P(=O)(O)O [Z-3] has what remaining at 24 h? 95%

###

assay-method-text: pH dependence of the stability of DCHA+ salts 3 in D2O (31P NMR)
Format: physicochemical
measurement-context: t = 24 h, pH 6.2, D2O, 22° C.; read-out: E isomer (% int, 31P NMR)
quantity-name: remaining at 24 h
Form field: result (number plus unit)

Entry COC(=O)/C(=N\O)P(=O)(O)O [E-3] has what remaining at 24 h? 91.1%

###

assay-method-text: Stability / hydrolysis-fragmentation of E-16 (anilinium salt E-19) in water
Assay type: physicochemical
measurement-context: water, pH 6.5; read-out: t1/2 of decomposition in H2O (converted)
Protocol: Stability of E-19. These experiments were carried out in 5 mm glass NMR tubes at 22° C., concentration of E-4 0.1% (w/v).
quantity-name: half-life

Entry O=C(Oc1ccc([N+](=O)[O-])cc1)/C(=N\O)P(=O)(O)O [E-16] has what half-life? ~30 h
